# System under test: human DGKζ (Homo sapiens)
# Construct: TVMV protease cleavage site (C); Hexa-His (C); made in house; host or cells: Sf9 insect cells (baculovirus, Bac-to-Bac)
# Sequence (Q13574 with tags, fused parts or gaps isoform Q13574-4): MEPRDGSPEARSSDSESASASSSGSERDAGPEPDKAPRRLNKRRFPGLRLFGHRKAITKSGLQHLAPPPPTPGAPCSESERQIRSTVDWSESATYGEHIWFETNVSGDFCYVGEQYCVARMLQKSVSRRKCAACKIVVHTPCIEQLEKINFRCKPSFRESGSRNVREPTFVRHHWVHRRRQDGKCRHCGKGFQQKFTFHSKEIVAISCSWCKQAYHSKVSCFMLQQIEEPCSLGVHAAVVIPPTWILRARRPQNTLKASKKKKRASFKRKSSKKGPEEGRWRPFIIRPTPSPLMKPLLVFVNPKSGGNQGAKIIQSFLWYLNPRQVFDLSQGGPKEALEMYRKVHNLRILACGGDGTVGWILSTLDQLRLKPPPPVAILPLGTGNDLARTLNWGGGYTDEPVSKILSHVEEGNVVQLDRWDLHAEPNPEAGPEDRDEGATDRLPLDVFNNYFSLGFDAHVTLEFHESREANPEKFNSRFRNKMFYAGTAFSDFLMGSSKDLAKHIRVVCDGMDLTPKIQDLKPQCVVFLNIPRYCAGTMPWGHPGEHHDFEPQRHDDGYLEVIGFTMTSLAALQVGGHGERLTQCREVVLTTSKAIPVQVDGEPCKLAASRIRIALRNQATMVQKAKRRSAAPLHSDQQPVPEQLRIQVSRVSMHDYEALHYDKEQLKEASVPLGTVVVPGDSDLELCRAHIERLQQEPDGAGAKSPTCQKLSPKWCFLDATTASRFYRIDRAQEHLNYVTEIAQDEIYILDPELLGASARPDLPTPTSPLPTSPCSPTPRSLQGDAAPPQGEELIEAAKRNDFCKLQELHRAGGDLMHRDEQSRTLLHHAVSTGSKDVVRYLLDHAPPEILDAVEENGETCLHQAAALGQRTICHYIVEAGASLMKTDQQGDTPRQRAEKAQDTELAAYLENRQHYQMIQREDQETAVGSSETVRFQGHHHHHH
# Run description: DGKζ LIPGLO assay (extruded liposome substrate), in vitro DGK inhibition
# Type: biochemical
# Run parameters: liposome (LIPGLO) assay; read-out: DGKz LIPGLO IC50
Entries and their measured pIC50 follow.
Give only the number. pIC50 is defined as minus log10 of concentration in molar units.

Some compounds with recorded pIC50:
>>> readout_number("CC[C@H]1CN(C(C)c2ccc(OC(F)F)cc2)[C@H](CC)CN1c1cc(=O)n(C)c2ccc(C#N)nc12 (single isomer, unassigned) [Example 1374]")
6.55
>>> readout_number("CC[C@H]1CN(C(C)c2ccc(OC(F)(F)F)cc2)[C@H](C)CN1c1cc(=O)n(C)c2ccc(C#N)nc12 (single isomer, unassigned) [Example 1141]")
6.43

Cc1ccc(C(c2cccc(F)c2)N2C[C@H](C)N(c3cc(=O)n(C)c4ccc(C#N)nc34)C[C@H]2C)nc1 (single isomer, unassigned) [Example 216] yielded pIC50 of 6.68

Cc1ncc(C(c2ccc(Cl)cc2)N2CCN(c3c(C#N)c(=O)n(C)c4ccc(C#N)nc34)C[C@H]2C)cn1 (single isomer, unassigned) [Example 413] yielded pIC50 of 4.82

C[C@@H]1CN(c2cc(=O)n(C)c3ccc(C#N)nc23)[C@@H](C)CN1Cc1ccc(OC(F)(F)F)cc1Br [Example 593] yielded pIC50 of 5.23

CC(c1ccc(OC(F)(F)F)cc1F)N1C[C@H](C)N(c2cc(=O)n(C)c3ccc(C#N)nc23)C[C@H]1C (stereo partly drawn) [Example 437] yielded pIC50 of 6.17

Cn1c(=O)cc(N2CCN(C(c3ccc(F)cc3)c3ccc(F)cc3)C(CF)C2)c2nc(C#N)ccc21 (stereo not drawn) [Example 8] yielded pIC50 of 5.30

C[C@@H]1CN(c2cc(=O)n(C)c3ccc(C#N)nc23)[C@@H](C)CN1C(CO)c1ccc(C(F)(F)F)cn1 (single isomer, unassigned) [Example 1280] yielded pIC50 of 5.07

COCC(c1ccc(F)cc1)N1C[C@H](C)N(c2cc(=O)n(C)c3ccc(C#N)nc23)C[C@H]1C (single isomer, unassigned) [Example 559] yielded pIC50 of 5.57

CC[C@H]1CN(C(C)c2ccc(C(F)(F)F)cc2F)[C@H](CC)CN1c1cc(=O)n(C)c2ccc(C#N)nc12 (single isomer, unassigned) [Example 1364] yielded pIC50 of 7.54

CC[C@H]1CN(C(C)c2ccc(C(F)(F)F)cc2)[C@H](C)CN1c1cc(=O)n(C)c2ccc(C#N)nc12 (single isomer, unassigned) [Example 1143] yielded pIC50 of 4.89

CC(c1nc(C2CC2)no1)N1C[C@H](C)N(c2c(C#N)c(=O)n(C)c3ccc(C#N)nc23)C[C@H]1C (single isomer, unassigned) [Example 1307] yielded pIC50 of 4.85
